The measurements presented in this section are drawn from paper PMC2688778.

Target: T1, RecE564 K761A (Escherichia coli K12, UniProt P15032 564-866, K761A)
T1 sequence: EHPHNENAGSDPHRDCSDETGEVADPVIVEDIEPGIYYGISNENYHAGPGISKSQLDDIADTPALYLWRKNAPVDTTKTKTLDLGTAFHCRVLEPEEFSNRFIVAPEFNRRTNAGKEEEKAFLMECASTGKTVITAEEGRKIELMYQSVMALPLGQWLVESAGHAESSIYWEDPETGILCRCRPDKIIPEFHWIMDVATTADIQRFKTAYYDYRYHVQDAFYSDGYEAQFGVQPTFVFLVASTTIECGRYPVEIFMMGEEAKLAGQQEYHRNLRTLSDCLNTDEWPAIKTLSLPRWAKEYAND
Test: fluorescence anisotropy
endpoint: Kd (nM)
One number for each entry, in nM.

F25 (dsDNA) DNA 1: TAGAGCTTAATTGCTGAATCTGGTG DNA 2: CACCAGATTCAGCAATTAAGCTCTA has a reported Kd of 130
